test system: BT-549 breast; test: NCI tumour cell line growth inhibition, 48 h
parameter: GI50

Use the examples below as a reference point.
NS(=O)(=O)c1ccc(N2N=C3c4ccccc4CC3C2c2cccs2)cc1 (centres undefined) : 19.3 µM
O=C(/C=C/c1ccc(C(F)(F)F)cc1)Nc1ccc(C=C2c3ccccc3C(=O)c3ccccc32)cc1 : 3.33 µM
NC(=O)[C@@H](CC1CC1)[C@@H](CCC(F)(F)F)C(=O)N[C@H]1N=C(c2ccccc2)c2cccc(F)c2NC1=O : > 100 µM

Field: next molecule
Give GI50 (BT-549 breast) of the following molecule: COc1cc2ncnc(-n3ncc4cc(NC(=O)Nc5ccc(Cl)c(Cl)c5)ccc43)c2cc1OC 1.97 µM
